A collection of compounds and their measured growth
- Tested on: HCC-2998 colon
- protocol.summary: NCI-60 one-dose screen, 48 h (100 = growth as untreated, 0 = no growth, -100 = all killed)
- test.context: 10 µM
This is part of a sample that, as a whole, favours compounds with a hit. Of some 83,000 tested, about 20% had one in any assay.

>  <compound>
CC(CNC(Cc1ccccc1)c1ccccc1)NC(Cc1ccccc1)c1ccccc1 (stereo not drawn)

>  <units>
%

>  <growth>
20.1

$$$$
>  <compound>
COc1cccc2c1O/C(=C\c1ccc([N+](=O)[O-])s1)C2=O

>  <units>
%

>  <growth>
89.7

$$$$
>  <compound>
COc1cc(C2CC(=O)Nc3c2c(C)nn3-c2nc3ccccc3[nH]2)cc(OC)c1O (stereo not drawn)

>  <units>
%

>  <growth>
88.9

$$$$

====

- System: SR leukemia
- protocol.summary: NCI-60 one-dose screen, 48 h (100 = growth as untreated, 0 = no growth, -100 = all killed)
- test.context: 10 µM
The panel holds about 83,000 compounds, 20% with a hit somewhere; the sample as a whole holds those more often.
Collected growth values appear next to each entry.
test.readout: growth (%)

>  <molecule>
O=C(CSc1nnc(-c2ccc(Cl)cc2)o1)c1ccccc1

>  <test.system>
SR leukemia

>  <test.readout>
growth

>  <units>
%

>  <numeric.value>
94

$$$$
>  <molecule>
COCc1cc2c(cc1Br)OCO2

>  <test.system>
SR leukemia

>  <test.readout>
growth

>  <units>
%

>  <numeric.value>
106

$$$$
>  <molecule>
C#C[C@]1(O)CC[C@H]2[C@@H]3CC[C@H]4CC(F)(F)CC[C@]4(C)[C@H]3CC[C@@]21C

>  <test.system>
SR leukemia

>  <test.readout>
growth

>  <units>
%

>  <numeric.value>
8.15

$$$$
>  <molecule>
CCN1CCN(c2nc(NNC(=O)c3cccc(OC)c3)nc(N3CCN(C(c4ccccc4)c4ccccc4)CC3)n2)CC1

>  <test.system>
SR leukemia

>  <test.readout>
growth

>  <units>
%

>  <numeric.value>
-11.8

$$$$
>  <molecule>
CCOc1ccc2c(c1)CC[C@@H]1[C@@H]2CC[C@]2(C)[C@@H](O)[C@@H](O)C[C@@H]12

>  <test.system>
SR leukemia

>  <test.readout>
growth

>  <units>
%

>  <numeric.value>
88.5

$$$$
>  <molecule>
CCOC(=O)c1cc(-c2ccccc2)nc(N)n1

>  <test.system>
SR leukemia

>  <test.readout>
growth

>  <units>
%

>  <numeric.value>
106

$$$$
>  <molecule>
COc1cc2nc(Sc3sc(N)nc3C)n(-c3ccc(Oc4ccccc4)cc3)c(=O)c2cc1OC

>  <test.system>
SR leukemia

>  <test.readout>
growth

>  <units>
%

>  <numeric.value>
-43.4

$$$$
>  <molecule>
FC(F)(F)c1ccc(-c2ncc(-c3ccc(C(F)(F)F)cc3)c(NCc3cc(C(F)(F)F)cc(C(F)(F)F)c3)n2)cc1

>  <test.system>
SR leukemia

>  <test.readout>
growth

>  <units>
%

>  <numeric.value>
83.7

$$$$
>  <molecule>
CC1(C)CC(OCCCC[P+](c2ccccc2)(c2ccccc2)c2ccccc2)CC(C)(C)N1O

>  <test.system>
SR leukemia

>  <test.readout>
growth

>  <units>
%

>  <numeric.value>
11.7

$$$$
>  <molecule>
N#CN1CC[C@H](C(=O)Nc2ncc(-c3ccncc3)s2)C1

>  <test.system>
SR leukemia

>  <test.readout>
growth

>  <units>
%

>  <numeric.value>
1.53

$$$$
>  <molecule>
CNC(=S)Sc1ccc([N+](=O)[O-])cc1[N+](=O)[O-]

>  <test.system>
SR leukemia

>  <test.readout>
growth

>  <units>
%

>  <numeric.value>
17.3

$$$$
>  <molecule>
O=C(CCCC(=O)N/N=C/c1cc(Cl)ccc1O)N/N=C\c1cc(Cl)ccc1O

>  <test.system>
SR leukemia

>  <test.readout>
growth

>  <units>
%

>  <numeric.value>
1.74

$$$$
>  <molecule>
COC(=O)C1(C(=O)OC)C2C(=O)C3C(C21)C3(C(=O)OC(C)(C)C)C(=O)OC(C)(C)C (configuration not stated)

>  <test.system>
SR leukemia

>  <test.readout>
growth

>  <units>
%

>  <numeric.value>
113

$$$$
>  <molecule>
CCSc1nc2c([nH]1)c(=O)n(C)c(=S)n2C

>  <test.system>
SR leukemia

>  <test.readout>
growth

>  <units>
%

>  <numeric.value>
118

$$$$
>  <molecule>
CCCCOCC(=O)NC(NP(=O)(N(C)C)N(C)C)C(Cl)(Cl)Cl (configuration not stated)

>  <test.system>
SR leukemia

>  <test.readout>
growth

>  <units>
%

>  <numeric.value>
111

$$$$
>  <molecule>
O=[N+]([O-])c1ccc2c(c1)Cc1cc(I)ccc1-2

>  <test.system>
SR leukemia

>  <test.readout>
growth

>  <units>
%

>  <numeric.value>
92.4

$$$$
>  <molecule>
COC(=O)[C@]12CC[C@@H](C)[C@H](C)[C@@H]1C1=CC[C@@H]3[C@@]4(C)CC(=O)[C@H](O)[C@@](C)(CO)[C@@H]4C(=O)C[C@@]3(C)[C@]1(C)CC2

>  <test.system>
SR leukemia

>  <test.readout>
growth

>  <units>
%

>  <numeric.value>
-51.3

$$$$
>  <molecule>
COc1ccc(/C=C2\CCC3C(CCCC34OCCO4)C2=O)cc1 (configuration not stated)

>  <test.system>
SR leukemia

>  <test.readout>
growth

>  <units>
%

>  <numeric.value>
35.5

$$$$
>  <molecule>
N#Cc1cnc2ccc(NCc3cnc[nH]3)cc2c1Nc1ccc(F)c(Cl)c1

>  <test.system>
SR leukemia

>  <test.readout>
growth

>  <units>
%

>  <numeric.value>
66.1

$$$$
>  <molecule>
CCOC(=O)C(=O)Cc1cccnn1

>  <test.system>
SR leukemia

>  <test.readout>
growth

>  <units>
%

>  <numeric.value>
101

$$$$
>  <molecule>
CCOc1nc(-c2ccccc2)cc2c(O)c(C(=O)N/N=C/c3ccc(OC)cc3)[nH]c(=O)c12

>  <test.system>
SR leukemia

>  <test.readout>
growth

>  <units>
%

>  <numeric.value>
112

$$$$
>  <molecule>
COc1ccc(-c2csc(-c3cc(Cl)cc(Cl)c3Cl)n2)cc1

>  <test.system>
SR leukemia

>  <test.readout>
growth

>  <units>
%

>  <numeric.value>
88.8

$$$$
>  <molecule>
O=CNc1c(Cl)cc2c(c1Cl)Cc1cc([N+](=O)[O-])ccc1-2

>  <test.system>
SR leukemia

>  <test.readout>
growth

>  <units>
%

>  <numeric.value>
57

$$$$
>  <molecule>
CC(C)CCN(CCCNc1c2c(nc3cc(Cl)ccc13)CCCC2)CCC(C)C

>  <test.system>
SR leukemia

>  <test.readout>
growth

>  <units>
%

>  <numeric.value>
7.94

$$$$
>  <molecule>
CCOC(=O)Nc1ccc2c(c1)C(=O)N(CCOC)c1ccccc1O2

>  <test.system>
SR leukemia

>  <test.readout>
growth

>  <units>
%

>  <numeric.value>
17.5

$$$$
>  <molecule>
COC(=O)c1c(C)nc(Nc2nc3ccccc3s2)nc1-c1ccc(Cl)cc1Cl

>  <test.system>
SR leukemia

>  <test.readout>
growth

>  <units>
%

>  <numeric.value>
99.4

$$$$
>  <molecule>
O=C(Cn1ccc(=O)[nH]c1=O)c1ccc([N+](=O)[O-])o1

>  <test.system>
SR leukemia

>  <test.readout>
growth

>  <units>
%

>  <numeric.value>
73.9

$$$$

====

- System: NCI-H23 lung
- protocol.summary: NCI-60 one-dose screen, 48 h (100 = growth as untreated, 0 = no growth, -100 = all killed)
- test.context: 10 µM
The panel holds about 83,000 compounds, 20% with a hit somewhere; the sample as a whole holds those more often.
test.readout: growth (%)

>  <compound>
CCCn1c(=O)c2c(nc(-c3cccc(OCCCCl)c3)n2C)n(CCC)c1=O

>  <units>
%

>  <numeric.value>
59.1

$$$$
>  <compound>
C=CCOc1ccc2c(c1)CC[C@@H]1[C@@H]2CC[C@]2(C)C(=O)/C(=N/O)C[C@@H]12

>  <units>
%

>  <numeric.value>
60.1

$$$$
>  <compound>
CC1(CO)CCCC12OCCO2 (stereo not given)

>  <units>
%

>  <numeric.value>
106

$$$$
>  <compound>
CN(C)CCCN(Cc1ccccc1O)C(=S)Nc1ccc(Cl)cc1

>  <units>
%

>  <numeric.value>
108

$$$$
>  <compound>
CCOC(=O)c1c(C)n(-c2ccc(Cl)cc2)c2ccc(OC(=O)/C=C/c3ccccc3)cc12

>  <units>
%

>  <numeric.value>
93.3

$$$$
>  <compound>
O=C(Nc1ccc(Oc2ccc(Nc3nc4ccccc4s3)cc2)cc1)Nc1ccc(Cl)c(Cl)c1

>  <units>
%

>  <numeric.value>
8.31

$$$$
>  <compound>
C[C@]12CC[C@H]3[C@@H](CC=C4C[C@@H](O)CC[C@@]43C)[C@@H]1CC[C@@H]2C(=O)C/C=N/O

>  <units>
%

>  <numeric.value>
86.6

$$$$
>  <compound>
Clc1ccc(-c2nc(-c3cccs3)cn3ccnc23)cc1

>  <units>
%

>  <numeric.value>
71.1

$$$$
>  <compound>
Cc1cc(/C=C2\SC(=Nc3ccccc3)N(C3CCCC3)C2=O)c(C)n1-c1ccc(Cl)cc1

>  <units>
%

>  <numeric.value>
-19.8

$$$$
>  <compound>
O=C(Nc1cccc(Cl)c1)Nc1cc2ncncc2cc1OCc1cccc(F)c1

>  <units>
%

>  <numeric.value>
20.6

$$$$
>  <compound>
COc1cc(C2C=C(c3ccc(Cl)c(Cl)c3)N=C3SC(C)=CN32)cc(OC)c1OC (stereo not given)

>  <units>
%

>  <numeric.value>
79.5

$$$$
>  <compound>
COc1ccc(-c2[nH]ncc2/C=C/c2cc(C(F)(F)F)[nH]c(=O)n2)cc1

>  <units>
%

>  <numeric.value>
99.4

$$$$
>  <compound>
CCCCCCCCCCCCCCCCn1cc[n+](C)c1

>  <units>
%

>  <numeric.value>
-51.9

$$$$
>  <compound>
COc1ccc(NC(=O)CCn2cnc3c(cc(-c4ccccc4)n3-c3ccccc3)c2=O)cc1

>  <units>
%

>  <numeric.value>
85.8

$$$$
>  <compound>
CC(C)C[C@H](NC(=O)CCn1ccc2ccccc2c1=O)B(O)O

>  <units>
%

>  <numeric.value>
63.4

$$$$
>  <compound>
CC1(C)CNC(=O)N1

>  <units>
%

>  <numeric.value>
104

$$$$
>  <compound>
CC(=O)OCC(COC(C)=O)(COC(C)=O)COC(C)=O

>  <units>
%

>  <numeric.value>
102

$$$$
>  <compound>
COc1ccc(C2C=C(c3ccc(OC)c(OC)c3)N=C3SC=CN32)c(Br)c1 (stereo not given)

>  <units>
%

>  <numeric.value>
89.3

$$$$
>  <compound>
Oc1[nH]c2ccccc2c1/C=c1/cc2c(c(-c3ccc(C(F)(F)F)cc3)n1)=Nc1ccccc1-2

>  <units>
%

>  <numeric.value>
71.1

$$$$
>  <compound>
Clc1cc(Cl)c(OCCCCCCN2CCNCC2)c(Cl)c1

>  <units>
%

>  <numeric.value>
53.9

$$$$
